target: SARS-CoV-2 S2 domain (UniProt P0DTC2 686-1213); experiment: ELISA
measurement_type: EC50 (nM)
Form entry: value (nM) — number only.

Consider the reported EC50 for these binders:
binder	measurement_type	endpoint_value
3-E13-A (antibody, V domains shown) VH: EVQLQQSGPELVKPGASVKMSCKASGYTFTDYNIHWVKQSHGKSLEWIGYINPNNGGTDYNQKFQGKATLTVNKSSSTAYMELRSLTSEDFAVYYCARGGFYGNYGAYYGMDFWGQGTSVTVSS VL: DIQMTQSPASLSASVGETVTITCRTSENIYSHLAWYQQTQGKSPQLLVYNAKTLAEGVPSRFSGSGSGTHFSLKINSLQPEDFGSYYCQHHYGIPPEFGGGTKLEIK	EC50	0.05
1-B11-A (antibody, V domains shown) VH: QVQLQQSGPELVKPGASVKISCKASGYTFTDHYINWVKQRPGQGLEWIGWIFPGSGSTYYNEQFKGKATLTVDKSSNTAYMLLSSLTSEDSAVYFCARSGGLRLGFAYWGQGTLVTVSA VL: DIQMTQTTSSLSASLGDRVTISCRASQDISNYLNWYQQKPDGTVKLLIYYTSRLHSGVPSRFSGSGSGTDYSLTISNLEQEDISTYFCQQVNTLPYTFGGGTKLEIK	EC50	6.62

We now examine a further binder.
Reported EC50 ( 4-C3-A (antibody, V domains shown) VH: EVQLQQSGPELVKPGASVKISCKASGYSFTGYYMHWVKQSHGNILDWIGYIYPYNGVSSYNQKFKGKATLTVDKSSSTAYMELRSLTSEASAVYYCARAYGSSYDYYYGLDYWGQGTSVTVSS VL: DIVLTQSPASLAVSLGQRATISCKASQSVDYDGAGYMNWYQQKPGQPPKLLISSASNLQSGIPARFSGSGSGTDFTLNIHPVEEEDAATYYCQQSNDDPYTFGGGTKLEIK ) = 81.1

src = patent US20240239875A1
